Data origin, for the record: PubChem BioAssay (NCI)

Test: NCI Yeast Anticancer Drug Screen. Data for the rad50EPP+ strain (AID 151);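 note: 0% = growth of vehicle-treated control cultures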
Settings: S. cerevisiae rad50 mutant strain, at 33.0 µM, stronger effect = higher value
About 79,000 compounds went through this panel and 15% of them were active in at least one assay; those are over-represented in the sample as a whole.
assay-metric: growth inhibition (%)

In [3]: df
Out[3]:
                                   compound  measured_result
0  COC1=CCC23C(=O)C=CC(=O)C2(C1)C(=O)c1ccccc1C3=O (centres undefined)               30
1  O=C(c1cc(=O)c2ccc(O)cc2o1)c1ccc(Cl)cc1Cl               94
2  CCOP(=O)(OCC)/C(C#N)=C/c1ccc(-c2ccc(F)cc2F)o1                0
3  CCCCS(=O)(=O)Nc1ccc(Nc2c3ccccc3nc3ccccc23)c(OC)c1               53

----------
Reported growth inhibition by item:
Experiment: NCI Yeast Anticancer Drug Screen. Data for the rad52 strain (AID 147);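 note: 0% = growth of vehicle-treated control cultures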
Settings: S. cerevisiae rad52 mutant growth inhibition; at 33.0 µM; stronger effect = higher value
This is part of a sample that, as a whole, favours compounds with a hit. Of some 79,000 tested, about 15% had one in any assay. Active and inactive are the calls of the source. No stated cut-off is given here; in the data, active means growth inhibition above about 70%; inactive means the rest. Residues, ends and D or L forms follow the SMILES beside them. *: point of attachment. Fmoc = O=C(OCC1c2ccccc2-c2ccccc21)*; Boc = CC(C)(C)OC(=O)*
assay-metric: growth inhibition

compound	assay-metric	measured-result
O=[N+]([O-])c1cn[n+]([O-])c2ccccc12	growth inhibition	97% (active)
CCOc1ccc(N)c(S)c1	growth inhibition	79% (active)
CC(C)(C)OC(=O)NCCCCC(NC(=O)C(Cc1c[nH]c2ccccc12)NC(=O)OCC1c2ccccc2-c2ccccc21)C(=O)O (stereo not given) (Fmoc-Trp-Lys(Boc)-OH; configuration not given here)	growth inhibition	10% (inactive)
O=[N+]([O-])/C=C/c1cc2ccc3ccccc3c2[nH]1	growth inhibition	88% (active)
C[N+](C)([O-])CCCNc1c2ccccc2nc2cccc([N+](=O)[O-])c12	growth inhibition	96% (active)
O=Cc1ccccc1C=O	growth inhibition	4% (inactive)
CCN(CC)CCNc1ccc2nc(C)n3c4ccc(O)cc4c(=O)c1c23	growth inhibition	91% (active)
COC(=O)/C(C#N)=C\NC(=S)C(N)=S	growth inhibition	99% (active)
CC(C)NCCCNc1c2ccccc2nc2cccc([N+](=O)[O-])c12	growth inhibition	97% (active)
CCCCCCCCCC(=O)N(CCC)CCC	growth inhibition	42% (inactive)
O=C(CN(c1ccccc1)c1ccccc1)n1nnc2ccccc21	growth inhibition	39% (inactive)
O=C1/C(=C/c2ccc(Cl)c(Cl)c2)CNC/C1=C\c1ccc(Cl)c(Cl)c1	growth inhibition	76% (active)
O=C(Cc1ccccc1)NN1C(=O)C(Cl)C1c1cc(Br)cc(Br)c1O (stereo not given)	growth inhibition	93% (active)
O=c1[nH]c2c([N+](=O)[O-])cccc2c2ccccc12	growth inhibition	40% (inactive)
Cc1oc2ccccc2c(=O)c1Cn1nnc2ccccc21	growth inhibition	9% (inactive)

----------
Experiment: NCI Yeast Anticancer Drug Screen. Data for the rad50 strain (AID 155);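 note: 0% = growth of vehicle-only cultures of the same strain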
Conditions: S. cerevisiae rad50 strain growth inhibition; at 50.0 µM; stronger effect = higher value
The panel holds about 79,000 compounds, 15% with a hit somewhere; the sample as a whole holds those more often.
assay-metric: growth inhibition (%)

>>> print(df.to_string())
                                   molecule  measured_result
0  COc1ccc(-c2cc(-c3cc(C)cc(Cl)c3O)nc3[nH]c(=S)[nH]c(=S)c23)cc1             75.1
1          CC(C)=CCC/C(C)=C/CN1C(=O)C=CC1=O             99.7
2  CCC[CH2][Ge]([CH2]CCC)([CH2]CCC)[O]C(=O)C(O)c1ccccc1 (stereo not drawn)             90.2

----------
Assay: NCI Yeast Anticancer Drug Screen. Data for the rad50EPP+ strain (AID 151);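 note: 0% = growth of vehicle-treated control cultures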
Conditions: S. cerevisiae rad50 mutant strain, at 11.0 µM, stronger effect = higher value
This is part of a sample that, as a whole, favours compounds with a hit. Of some 79,000 tested, about 15% had one in any assay.
assay-metric: growth inhibition (%)

                                 smiles_repr  measured_result
 0        CN(CCOc1ccc(Cl)cc1)CCOc1ccc(Cl)cc1                7
 1  O=[N+]([O-])c1cc(Cl)ccc1S(=O)(=O)c1ccc(Cl)cc1[N+](=O)[O-]               55
 2                     Nc1ccc2cc(Br)ccc2c1Br               23
 3           CC(C)OC(=O)NNc1c(Cl)cc(Cl)cc1Cl               49
 4      CC(C)(C)c1ccc2c(c1)C(=O)c1ccccc1C2=O               18
 5     CCOP(=O)(OCC)/C(C#N)=C\c1cccc2ccccc12                3
 6    COc1ccc(C(=O)/C=C\c2ccc(Cl)c(Cl)c2)cc1               16
 7  NCCOc1ccc(/C(=C(/Cl)c2ccccc2)c2ccccc2)cc1               15
 8  Cc1c2cc[n+](CCO)cc2c(C)c2c1[nH]c1ccc(O)cc12               59
 9            O=C(O)c1ccc2cc(Cl)c3ccccc3c2c1               17
10  O=C1c2cccc3cccc(c23)C(=O)N1CCNCCN1C(=O)c2cccc3cccc(c23)C1=O                0
11  Cc1cccc2c(NCCCN(C)C)c3c([N+](=O)[O-])ccc(C)c3nc12               85

----------
Test: NCI Yeast Anticancer Drug Screen. Data for the mec2-1 strain (AID 157)
Settings: S. cerevisiae mec2-1 strain, at 3.7 µM, stronger effect = higher value
This is part of a sample that, as a whole, favours compounds with a hit. Of some 79,000 tested, about 15% had one in any assay. The source made the active and inactive calls. No stated cut-off is given here; in the data, active means growth inhibition above about 70%; inactive means the rest.
assay-metric: growth inhibition

>>> df
                                    compound       assay_metric  measured_result
 0  O=CC1(F)CC1(c1ccccc1)c1ccccc1 (stereo unspecified)  growth inhibition   -3% (inactive)
 1      O=C(O)C(=Cc1ccc(-c2ccccc2)cc1)C(=O)O  growth inhibition    7% (inactive)
 2         CC(=O)CCC1=C(C)C(=O)C(=O)C(C)=C1O  growth inhibition   -6% (inactive)
 3  COC1=CCC23C(=O)C=CC(=O)C2(C1)C(=O)c1ccccc1C3=O (stereo unspecified)  growth inhibition   -4% (inactive)
 4  O=C1C(/C=C/c2ccc(Cl)cc2)=NNC2N1N=C1NC(=O)C3(NN12)c1ccccc1-c1ccccc13 (stereo unspecified)  growth inhibition    1% (inactive)
 5  CCCCCc1c(CCCC)c(=O)[nH]c2cc(CNCC(OC)OC)ccc12  growth inhibition   -9% (inactive)
 6          C/C(=N/NC(=S)Nc1ccccc1C)c1ccccn1  growth inhibition  -10% (inactive)
 7  CC(C)[Si]1(C(C)C)OCC2OC(n3cnc4c(N)ncnc43)C(N)C2O[Si](C(C)C)(C(C)C)O1 (stereo unspecified)  growth inhibition   -5% (inactive)
 8  O=C1/C(=C/c2ccc(Cl)c(Cl)c2)CNC/C1=C\c1ccc(Cl)c(Cl)c1  growth inhibition   23% (inactive)
 9  CN1C(=O)C(CC(=O)O)NC1=S (stereo unspecified)  growth inhibition    3% (inactive)
10  c1ccc([P+](CCN2Cc3ccccc3C2)(c2ccccc2)c2ccccc2)cc1  growth inhibition   39% (inactive)
11  OC(CC(O)(C(F)(F)F)C(F)(F)F)c1ccc(C(O)CC(O)(C(F)(F)F)C(F)(F)F)cc1 (stereo unspecified)  growth inhibition   38% (inactive)
12  CCCCCCCCN1COCC(COc2ccccc2C)OC1 (stereo unspecified)  growth inhibition   -4% (inactive)
13              O=C1c2cccc3cccc(c23)C(=O)N1O  growth inhibition   -5% (inactive)
14  CC(=O)O/N=C1C=C/C(=C(/C#N)c2ccccc2)C=C/1C  growth inhibition    4% (inactive)
15  CCN1CCC(O)(c2ccc(Oc3ccc(Cl)cc3)cc2)C(C(=O)c2ccc(Oc3ccc(Cl)cc3)cc2)C1 (stereo unspecified)  growth inhibition   28% (inactive)

----------
Experiment: NCI Yeast Anticancer Drug Screen. Data for the bub3 strain (AID 167)
Settings: S. cerevisiae bub3 mutant strain, at 100.0 µM
This is part of a sample that, as a whole, favours compounds with a hit. Of some 79,000 tested, about 15% had one in any assay. The source made the active and inactive calls. Rule as the data show it: active = growth inhibition above about 70%; inactive = the rest.
Classes used: y (active), n (inactive)

                                    compound  class
 0  O=C1c2cccc3cccc(c23)C(=O)N1CCNCCN1C(=O)c2cccc3cccc(c23)C1=O      n
 1         COC(=O)c1cnc(Cl)c([N+](=O)[O-])c1      y
 2  CC12CCC(CC(=O)/C1=C(/Br)I)C2(C)C (stereo unspecified)      n
 3               CC(C)OC(=O)NNc1cc(Cl)ccc1Cl      n
 4  O=[N+]([O-])c1ccc(/C=C\c2ccc3c(c2)OCO3)c([N+](=O)[O-])c1      n
 5                 Brc1ccc(B2Nc3ccccc3N2)cc1      n
 6    O=C1c2ccccc2C(=O)c2sc(Nc3ccccc3Cl)nc21      y
 7  C=CC(C)(C)N1C(=O)C(C(C)=O)=C(O)C1Cc1c[nH]c2ccccc12 (stereo unspecified)      y
 8         O=C1Nc2ccc(Br)cc2C1=Nc1ccc(Cl)cc1      y
 9                     COC(=N)c1ccc(O)c(C)c1      n
10                           CCCCCCCCCCCCCCN      y
11  COc1ccc(C2CC(C)(N3CCCC3)Oc3cc4c(cc32)OCO4)cc1 (stereo unspecified)      y
12                         CCCCCCCCNCCCCCCCC      y
13      OC(c1ccccc1)(c1ccccc1)c1nccc2ccccc12      y
14                N#Cc1nc(Nc2ccc(Cl)cc2)sc1N      y
15   O=C(/C(=C/c1ccc(O)cc1)c1ccccc1)c1ccccc1      y
